Test: Lipophilicity, log D of the compound by chromatographic analysis
Type: physicochemical
Measured Property: chromatographic logD
I'd appreciate a reply containing only the number, no unit.

Sure, the documented chromatographic logD for O=C(c1nn2c(C(F)(F)F)cc(C3CC3)cc2c1Cl)N1CCN([C@H]2C[C@@H]3C[C@@H]3[C@@H]2O)C(=O)C1 is 4.6

Briefly, chromatographic logD measured for O=C(c1nc2c(C(F)(F)F)cc(C3CC3)cn2c1Cl)N1CCN([C@H]2CC[C@H](O)CC2)C(=O)C1 : 3.5

chromatographic logD reading for O=C(c1nn2c(C(F)(F)F)cc(C3CC3)cc2c1Cl)N1CCN([C@H]2CC[C@H](O)CC2)C(=O)C1 : 4.1

// chromatographic logD value for O=C(c1nn2c(C(F)(F)F)cc(C3CC3)cc2c1Cl)N1CCN([C@@H]2C[C@H]3C[C@H]3C2)C(=O)C1 : 6.4

The recorded chromatographic logD for entry O=C(c1oc2c(C(F)(F)F)cc(C3CC3)cc2c1Cl)N1CCN([C@H]2CC[C@H](O)CC2)C(=O)C1 equals 5.1

The value of chromatographic logD measured for the compound Cn1c(C(=O)N2CCN([C@H]3CC[C@H](O)CC3)C(=O)C2)nc2c(C(F)(F)F)cc(C3CC3)cc21 turned out to be 4.3
